Data origin, for the record: ChEMBL document CHEMBL4396963

- Test system: KARPAS-299
- method: Antiproliferative activity against human KARPAS299 cells assessed as reduction in cell viability incubated for 72 hrs by MTT assay
- Assay type: functional, cell-based
- protocol-conditions: KARPAS-299, 72 h
observed-property: IC50 (nM)

chem-smiles: COc1cc(NC(=O)N2CCC(C(=O)O)CC2)ccc1Nc1ncc(Cl)c(Nc2ccccc2NC(C)=O)n1
target-or-system: KARPAS-299
measured-value: 1080

chem-smiles: COc1cc(NC(=O)N2CCN(CCO)CC2)ccc1Nc1ncc(Cl)c(Nc2ccccc2NC(C)=O)n1
target-or-system: KARPAS-299
measured-value: 93

chem-smiles: COc1cc(NC2=CC(=O)CCC2)ccc1Nc1ncc(Cl)c(Nc2ccccc2NC(C)=O)n1
target-or-system: KARPAS-299
measured-value: 1030

chem-smiles: COc1cc(N2C(=O)CCC2=O)ccc1Nc1ncc(Cl)c(Nc2ccccc2NC(C)=O)n1
target-or-system: KARPAS-299
measured-value: 210

chem-smiles: COc1cc(NC(=O)N2CCSCC2)ccc1Nc1ncc(Cl)c(Nc2ccccc2NC(C)=O)n1
target-or-system: KARPAS-299
measured-value: 210

chem-smiles: COc1cc(NC2CCCCC2)ccc1Nc1ncc(Cl)c(Nc2ccccc2NC(C)=O)n1
target-or-system: KARPAS-299
measured-value: 870

chem-smiles: COc1cc(NC(=O)NCCCN2CCOCC2)ccc1Nc1ncc(Cl)c(Nc2ccccc2NC(C)=O)n1
target-or-system: KARPAS-299
measured-value: 490

chem-smiles: COc1cc(NC(=O)NC2CCCCC2)ccc1Nc1ncc(Cl)c(Nc2ccccc2NC(C)=O)n1
target-or-system: KARPAS-299
measured-value: 720

chem-smiles: COc1cc(NC(=O)N2CCOCC2)ccc1Nc1ncc(Cl)c(Nc2ccccc2NC(C)=O)n1
target-or-system: KARPAS-299
measured-value: 27
